# System Under Test: Factor D (Homo sapiens (Human))
# Sequence (P00746 26-253): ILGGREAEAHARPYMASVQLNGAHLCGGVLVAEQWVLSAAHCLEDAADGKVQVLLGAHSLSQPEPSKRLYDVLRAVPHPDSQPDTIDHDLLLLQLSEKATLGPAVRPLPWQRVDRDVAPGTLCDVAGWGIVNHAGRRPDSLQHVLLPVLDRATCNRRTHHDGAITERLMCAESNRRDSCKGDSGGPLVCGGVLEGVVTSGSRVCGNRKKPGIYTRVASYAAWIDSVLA
# Measurement Notes: Factor D esterolytic assay (Z-Lys-SBzl substrate, DTNB, 405 nm)
# Assay type: biochemical
# Cond: Z-Lys-SBzl 1.29 mM, pH 7.5, 10% DMSO, tested a minimum of three times, read-out: Measured Ki (IC50) Value for Compounds: IC50

- Compound: "CC(=O)Nc1ccc(OCc2cc(-c3cccc(CN)c3)c3occc3c2)c(CC(=O)O)c1 [Compound 360c]"
  System Under Test: "Factor D (Homo sapiens (Human))"
  IC50: "< 1000 nM"
- Compound: "NCc1cc(-c2cc(COc3ccccc3CC(=O)O)cc3ccsc23)ccn1 [Compound 310c]"
  System Under Test: "Factor D (Homo sapiens (Human))"
  IC50: "< 1000 nM"
- Compound: "NCc1nccc(-c2cc(COc3cc(-c4ccccc4)ccc3CC(=O)O)cc3ccoc23)c1F [Compound 394c]"
  System Under Test: "Factor D (Homo sapiens (Human))"
  IC50: "< 1000 nM"
- Compound: "COCc1cc2cc(COc3cc(F)ccc3CC(=O)O)cc(-c3cccc(CN)c3F)c2o1 [Compound 478b]"
  System Under Test: "Factor D (Homo sapiens (Human))"
  IC50: "< 1000 nM"
- Compound: "CCOC(=O)Cc1ccccc1OCc1nc(-c2cccc(CN)c2)nn2cccc12 [Compound 25c]"
  System Under Test: "Factor D (Homo sapiens (Human))"
  IC50: "1000 to 10000 nM"
- Compound: "NCc1ccc(-c2cc(CC(=O)N3[C@@H]4C[C@@H]4C[C@H]3C(=O)NCc3cccc(Cl)c3F)cc3ccoc23)cc1 [Compound 275e]"
  System Under Test: "Factor D (Homo sapiens (Human))"
  IC50: "1000 to 10000 nM"
- Compound: "COCc1cc2cc(COc3cc(NC(C)=O)ccc3CC(=O)O)cc(-c3cccc(CN)c3)c2o1 [Compound 417e]"
  System Under Test: "Factor D (Homo sapiens (Human))"
  IC50: "< 1000 nM"
- Compound: "Nc1cccc(-c2cc(COc3ccccc3CC(=O)O)cc3ccoc23)c1 [Compound 184c]"
  System Under Test: "Factor D (Homo sapiens (Human))"
  IC50: "1000 to 10000 nM"
- Compound: "NCc1cccc(-c2cc(COc3ccccc3CC(=O)O)cc3[nH]c(C(F)(F)F)cc23)c1F [Compound 501f]"
  System Under Test: "Factor D (Homo sapiens (Human))"
  IC50: "< 1000 nM"
- Compound: "NCc1cccc(-c2cc(COc3ccccc3CC(=O)O)cc3cc(CCO)oc23)c1 [Compound 178g]"
  System Under Test: "Factor D (Homo sapiens (Human))"
  IC50: "< 1000 nM"
- Compound: "CC(C)n1ccc2c(-c3ccnc(CN)c3F)cc(COc3ccccc3CC(=O)O)cc21 [Compound 121b]"
  System Under Test: "Factor D (Homo sapiens (Human))"
  IC50: "< 1000 nM"
- Compound: "CC(C)n1ccc2c(-c3cccc(CN)c3F)cc(COc3ccc(F)cc3CC(=O)O)cc21 [Compound 494b]"
  System Under Test: "Factor D (Homo sapiens (Human))"
  IC50: "< 1000 nM"
- Compound: "NCc1cc(-c2cc(COc3ccccc3CC(=O)O)cc3sccc23)ccn1 [Compound 221c]"
  System Under Test: "Factor D (Homo sapiens (Human))"
  IC50: "< 1000 nM"
- Compound: "NCc1cccc(-c2cc(COc3ccc4ccccc4c3CC(=O)O)cc3ccoc23)c1 [Compound 400e]"
  System Under Test: "Factor D (Homo sapiens (Human))"
  IC50: "< 1000 nM"
- Compound: "NCc1cccc(-c2cc(C(=O)Nc3ccccc3CC(=O)O)c(F)c3ccoc23)c1 [Compound 241c]"
  System Under Test: "Factor D (Homo sapiens (Human))"
  IC50: "< 1000 nM"
- Compound: "COCc1cc2cc(COc3cc(OC)ccc3CC(=O)O)cc(-c3ccnc(CN)c3)c2o1 [Compound 472b]"
  System Under Test: "Factor D (Homo sapiens (Human))"
  IC50: "< 1000 nM"
- Compound: "CC(C)(C)c1ccc(CC(=O)O)c(OCc2cc(-c3cccc(CN)c3)c3occc3c2)c1 [Compound 317f]"
  System Under Test: "Factor D (Homo sapiens (Human))"
  IC50: "< 1000 nM"
- Compound: "NCc1cccc(-c2cc(COc3ccccc3CC(=O)O)cc3nncn23)c1 [Compound 159f]"
  System Under Test: "Factor D (Homo sapiens (Human))"
  IC50: "1000 to 10000 nM"
- Compound: "Cc1ccc(CC(=O)O)c(OCc2cc(-c3cccc(CN)c3)c3sccc3c2)c1 [Compound 443i]"
  System Under Test: "Factor D (Homo sapiens (Human))"
  IC50: "< 1000 nM"
- Compound: "COc1c(C(=O)Nc2ccccc2CC(=O)O)cc(-c2ccnc(CN)c2F)c2occc12 [Compound 334d]"
  System Under Test: "Factor D (Homo sapiens (Human))"
  IC50: "1000 to 10000 nM"
- Compound: "NCc1cccc(-c2cc(COc3ccccc3CC(=O)O)cc3cc(CNCC4CCCNC4)oc23)c1 (centres unmarked) [Compound 194d]"
  System Under Test: "Factor D (Homo sapiens (Human))"
  IC50: "< 1000 nM"
- Compound: "CC(=O)c1ccc(CC(=O)O)c(OCc2cc(-c3cccc(CN)c3)c3occ(C(F)(F)F)c3c2)c1 [Compound 506e]"
  System Under Test: "Factor D (Homo sapiens (Human))"
  IC50: "< 1000 nM"
- Compound: "NCc1cccc(-c2cc(COc3cc(CC4CC4)ccc3CC(=O)O)cc3ccoc23)c1 [Compound 261c]"
  System Under Test: "Factor D (Homo sapiens (Human))"
  IC50: "< 1000 nM"
- Compound: "NCc1cccc(-c2nc(C(=O)Nc3ccsc3CC(=O)O)cc3ccoc23)c1 [Compound 147c]"
  System Under Test: "Factor D (Homo sapiens (Human))"
  IC50: "< 1000 nM"
- Compound: "NCc1cc(F)cc(-c2cc(COc3ccccc3CC(=O)O)cc3[nH]ccc23)c1 [Compound 69e]"
  System Under Test: "Factor D (Homo sapiens (Human))"
  IC50: "< 1000 nM"
- Compound: "NCc1cccc(-c2nc(C(=O)Nc3ccccc3CC(=O)O)nc3c2ccn3CC2CC2)c1 [Compound 16i]"
  System Under Test: "Factor D (Homo sapiens (Human))"
  IC50: "< 1000 nM"
- Compound: "NCc1cccc(-c2cc(C(=O)Nc3ccccc3CC(=O)O)c3ncnn3c2)c1 [Compound 20e]"
  System Under Test: "Factor D (Homo sapiens (Human))"
  IC50: "> 10000 nM"
- Compound: "Cc1cccc(CC(=O)O)c1NC(=O)c1cc(-c2cccc(CN)c2)c2occc2c1 [Compound 165f]"
  System Under Test: "Factor D (Homo sapiens (Human))"
  IC50: "< 1000 nM"
- Compound: "Cc1ccc(CC(=O)O)c(OCc2cc(-c3ccnc(CN)c3F)c3ccn(C(C)C)c3c2)c1 [Compound 355c]"
  System Under Test: "Factor D (Homo sapiens (Human))"
  IC50: "< 1000 nM"
- Compound: "CC(=O)NC(C(=O)O)c1ccccc1OCc1cc(-c2cccc(CN)c2)c2occc2c1 (centres unmarked) [Compound 222f]"
  System Under Test: "Factor D (Homo sapiens (Human))"
  IC50: "< 1000 nM"
- Compound: "NCc1cccc(-c2cc(COc3c(CC(=O)O)ccc4ccccc34)cc3ccoc23)c1 [Compound 399d]"
  System Under Test: "Factor D (Homo sapiens (Human))"
  IC50: "< 1000 nM"
- Compound: "NCc1nccc(-c2cc(COc3ccc(F)cc3CC(=O)O)c(F)c3ccoc23)c1F [Compound 388d]"
  System Under Test: "Factor D (Homo sapiens (Human))"
  IC50: "< 1000 nM"
